Experiment: xn = mol fraction of the nth substance listed
Conditions: 278.15 K; 100 kPa; Liquid; Cone and plate viscometry; x1 = 0.3
Property label: viscosity (mPa·s)
Give just the number in mPa·s; leave the unit off.

// below: answered molecules
{"columns": ["Molecule", "Units of measure", "viscosity"],
 "data": [
  ["CCCCCCCCCCCCCC[P+](CCCCCC)(CCCCCC)CCCCCC.N#Cc1ccc[n-]1 [trihexyl(tetradecyl)phosphonium 2-cyanopyrrolide] + CCCCCCn1cc[n+](C)c1C.O=S(=O)([N-]S(=O)(=O)C(F)(F)F)C(F)(F)F", "mPa·s", 1056],
  ["CCCCCCCCCCCCCC[P+](CCCCCC)(CCCCCC)CCCCCC.N#Cc1ccc[n-]1 [trihexyl(tetradecyl)phosphonium 2-cyanopyrrolide] + CCCCCC[n+]1ccn(C)c1.O=S(=O)([N-]S(=O)(=O)C(F)(F)F)C(F)(F)F", "mPa·s", 662]
]}

Alright, here's another molecule for you.
State the recorded viscosity for this entry: CCCCCCn1cc[n+](C)c1.N#Cc1ccc[n-]1 [1-hexyl-3-methylimidazolium 2-cyanopyrrolide] + CCCCCCCCCCCCCC[P+](CCCCCC)(CCCCCC)CCCCCC.O=S(=O)([N-]S(=O)(=O)C(F)(F)F)C(F)(F)F 1258
